Target: Sodium channel protein type 1/2/3 subunit alpha (Rattus norvegicus, UniProt P04774+P04775+P08104)
Experiment: Displacement of [3H]BTX from sodium channel of rat cerebral cortex synaptosomes
Categories are assigned from the measured Ki using these intervals: lower bin = under 400 nM, middle bin = from 400 nM up to 2000 nM, upper bin = 2000 nM and over

| Compound | Category |
| --- | --- |
| CC12CCN(CCc3ccccc3)[C@H](Cc3cc(O)ccc31)C2(C)C | middle bin |
| CC12CCN(CCc3ccccc3)[C@@H](Cc3cc(O)ccc31)C2(C)C | middle bin |
| CO[C@H](C)CN1CCC2(C)c3cccc(O)c3C[C@@H]1C2(C)C | upper bin |
| C[C@@H](CN1CCC2(C)c3cccc(O)c3C[C@@H]1C2(C)C)OCC1CCCCC1 | lower bin |
| COC(C)CN1CCC2(C)c3ccc(O)cc3C[C@@H]1C2(C)C (some centres undefined) | upper bin |
| CO[C@@H](C)CN1CCC2(C)c3ccccc3C[C@@H]1C2(C)C | upper bin |
| C[C@@H](CN1CCC2(C)c3cccc(O)c3C[C@H]1C2(C)C)OCc1ccccc1 | middle bin |
| C[C@H](CN1CCC2(C)c3cccc(O)c3C[C@H]1C2(C)C)OCc1ccccc1 | middle bin |
| C[C@@H](CN1CCC2(C)c3ccc(O)cc3C[C@H]1C2(C)C)OCc1ccccc1 | middle bin |
| CN(c1nc2ccccc2s1)C1CCN(C[C@H](O)COc2ccc(F)c(F)c2)CC1 | lower bin |
| C[C@H](CN1CCC2(C)c3cccc(O)c3C[C@@H]1C2(C)C)OCC1CCCCC1 | lower bin |
| Cc1ccc(-c2nc(C)c(CN3CCN(C(c4ccccc4)c4ccccc4)CC3)[nH]2)cc1 | lower bin |
| CC1[C@H]2Cc3c(O)cccc3C1(C)CCN2C[C@H](C)OCc1ccccc1 (some centres undefined) | lower bin |
| CO[C@H](C)CN1CCC2(C)c3cccc(O)c3C[C@H]1C2(C)C | upper bin |
| CC(CN1CCC2(C)C[C@@H]1Cc1c(O)cccc12)OCc1ccccc1 (some centres undefined) | lower bin |
| COC(C)CN1CCC2(C)c3c(O)cccc3C[C@@H]1C2(C)C (some centres undefined) | upper bin |
| C[C@H](CN1CCC2(C)c3ccc(O)cc3C[C@H]1C2(C)C)OCc1ccccc1 | middle bin |
| CO[C@@H](C)CN1CCC2(C)c3cccc(O)c3C[C@@H]1C2(C)C | middle bin |
| C[C@@H](CN1CCC2(C)c3ccc(O)cc3C[C@H]1C2(C)C)Oc1ccccc1 | middle bin |
| C[C@H](CN1CCC2(C)c3ccc(O)cc3C[C@H]1C2(C)C)Oc1ccccc1 | middle bin |
| COc1ccc2c(c1)[C@]13CCCC[C@@H]1[C@H](C2)N(C)CC3 | upper bin |
| C[C@H](CN1CCC2(C)c3ccc(O)cc3C[C@@H]1C2(C)C)OCc1ccccc1 | lower bin |
| CC1[C@H]2Cc3c(O)cccc3C1(C)CCN2C[C@@H](C)OCc1ccccc1 (some centres undefined) | lower bin |
| Cc1cccc(C)c1OC[C@@H](C)N | upper bin |
| C[C@@H](CN1CCC2(C)c3ccc(O)cc3C[C@@H]1C2(C)C)OCc1ccccc1 | lower bin |
| C[C@H](CN1CCC2(C)c3ccc(O)cc3C[C@@H]1C2(C)C)Oc1ccccc1 | middle bin |
| COC(C)CN1CCC2(C)c3cc(O)ccc3C[C@@H]1C2(C)C (some centres undefined) | upper bin |
| C[C@@H](CN1CCC2(C)c3ccc(O)cc3C[C@@H]1C2(C)C)Oc1ccccc1 | lower bin |
| CO[C@@H](C)CN1CCC2(C)c3cccc(O)c3C[C@H]1C2(C)C | upper bin |
